We begin with a simple list: items and their reported IC50.
Tested on: MLMA;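 note: growth inhibition of MLMA cells (human), determined through a cell viability readout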
test: cells
Format: functional, cell-based, Homo sapiens
condition.description: Homo sapiens, MLMA
Description: SANGER: Inhibition of human MLMA cell growth in a cell viability assay.

chemical.string	target.or.system	inequality.sign	IC50, nM
COC(=O)[C@H](CCSC)NC(=O)c1ccc(NC[C@@H](N)CS)cc1-c1ccccc1	MLMA	>	1020
CCCCCCCCCCCC1=C(O)C(=O)C=C(O)C1=O	MLMA	>	32000
O=C1NC(=O)c2c1c(-c1ccccc1Cl)cc1[nH]c3ccc(O)cc3c21	MLMA	=	541
CC1=C(/C=C/C(C)=C/C=C/C(C)=C/C(=O)O)C(C)(C)CCC1	MLMA	>	10000
COc1ccc(N(C(=O)Oc2c(C)cccc2C)c2ccnc(Nc3ccc(N4CCN(C)CC4)cc3)n2)c(OC)c1	MLMA	=	1920
C/C(=C\c1csc(C)n1)[C@@H]1C[C@@H]2O[C@]2(C)CCC[C@H](C)[C@H](O)[C@@H](C)C(=O)C(C)(C)[C@@H](O)CC(=O)O1	MLMA	=	14.1
